System: SARS-CoV-2
Assay: microbe, parasite or virus in culture
Format: cell-based, SARS-CoV-2 variant omicron XBB.1.16.11
Conditions: Severe acute respiratory syndrome coronavirus 2, Vero C1008; read-out: EC50, concentration required to reduce the SARS-CoV-2 replication in Vero cells by 50%
measured attribute: EC50

// query EC50 value for entry CC(C)c1ccc(Cn2cc(/C=C/C(=O)/C=C(\O)C(=O)O)c3ccccc32)cc1 [5c]
9.41 µM

Lookup O=C(/C=C(\O)C(=O)O)/C=C/c1cn(Cc2ccc(F)cc2)c2ccc(Cl)cc12 [5i]
6.77 µM

====

# pEC50 listing for each entry below
Test system: SARS-CoV-2
Assay: microbe, parasite or virus in culture
Format: cell-based, SARS-CoV-2 variant omicron XBB.1.16.11
Conditions: Severe acute respiratory syndrome coronavirus 2, Vero C1008; read-out: EC50, concentration required to reduce the SARS-CoV-2 replication in Vero cells by 50%
Keep it numeric: pEC50 is minus log10 of the concentration in mol/L.

Known pEC50 results, listed for orientation:
CCOC(=O)/C(O)=C/C(=O)/C=C/c1cn(Cc2ccc(OC(F)(F)F)cc2)c2ccccc12 = 4.30
N#Cc1ccc(Cn2cc(/C=C/C(=O)/C=C(\O)C(=O)O)c3ccccc32)cc1 = 4.84
O=C(/C=C(\O)C(=O)O)/C=C/c1cn(Cc2ccc(OC(F)(F)F)cc2)c2ccccc12 = 5.03

Now look at this entry.
// query pEC50 value for entry CC(C)=Cn1cc(/C=C/C(=O)/C=C(\O)C(=O)O)c2ccccc21
5.37
